# GI50 per entry
- Test system: NCI/ADR-RES ovarian
- Procedure summary: NCI tumour cell line growth inhibition, 48 h
Readout label: GI50

Molecule: COc1ccc2nc3ccccc3c(NCc3ccc(C)cc3)c2c1
Readout label: GI50
Recorded measurement: 1790 nM
--
Molecule: c1ccc2c3c(ccc2c1)-c1c(ccc2c(NCCCCN4CCCCC4)cccc12)C3
Readout label: GI50
Recorded measurement: 1610 nM
--
Molecule: COc1cc(/C=C2\C[C@H]3[C@@H]4CC=C5C[C@@H](OC(C)=O)CC[C@]5(C)[C@H]4CC[C@]3(C)[C@H]2OC(C)=O)ccc1OCCN1CCCCC1
Readout label: GI50
Recorded measurement: > 50000 nM
--
Molecule: Cc1c(-c2nnc(-c3cc(Cl)c(Cl)cc3Cl)o2)nnn1-c1ccnc2c(C(F)(F)F)cccc12
Readout label: GI50
Recorded measurement: 22700 nM
--
Molecule: Oc1c(I)cc(I)cc1CN(Cc1ccccn1)Cc1ccccn1
Readout label: GI50
Recorded measurement: 1130 nM
--
Molecule: Nc1c2ccccc2nc2ccccc12 (tested in a mixture with another compound)
Readout label: GI50
Recorded measurement: 1740 nM
--
Molecule: Cc1nc2sc(C(=O)Nc3cccc(Br)c3)c(N)c2cc1C(O)c1ccccc1 (stereo not given)
Readout label: GI50
Recorded measurement: 619 nM
--
Molecule: N#Cc1nn(-c2cc(=O)[nH]c3ccc(Br)cc23)c(N)c1C#N
Readout label: GI50
Recorded measurement: > 100000 nM
--
Molecule: C=C(C)[C@@H]1CC[C@]2(C(N)=O)CC[C@]3(C)[C@H](CC[C@@H]4[C@@]5(C)C/C(=C/c6cccnc6)[C@H](O)C(C)(C)[C@@H]5CC[C@]43C)[C@@H]12
Readout label: GI50
Recorded measurement: 3740 nM
--
Molecule: Cc1cc2nc(C(Cl)Cl)nc(-c3ccccc3)n2n1
Readout label: GI50
Recorded measurement: 3780 nM

====

- Tested on: A498 renal
- Procedure summary: NCI tumour cell line growth inhibition, 48 h
Hi, to clarify the labels: Y covers TGI from 6 µM upward, N covers anything below 6 µM.

Molecule: Cn1c(=O)c2c(nc3n(C)c(=O)c4ccccc4n23)n(C)c1=O
Class label: Y
//
Molecule: CC(C)C1COC(c2ccc3ccccc3c2-c2c(O[Si](C)(C)C(C)(C)C)ccc3ccccc23)=N1 (stereo not given)
Class label: Y
//
Molecule: Cn1c(=O)c2[nH]c(CCCCc3nc4c([nH]3)c(=O)n(C)c(=S)n4C)nc2n(C)c1=S
Class label: Y
//
Molecule: OC(CC(O)(C(F)(F)F)C(F)(F)F)C(O)c1ccco1 (stereo not given)
Class label: Y
//
Molecule: CNC(=O)Nc1ccccc1
Class label: Y
//
Molecule: Cc1nc2sc(C(=O)Nc3cccc(Br)c3)c(N)c2cc1C(O)c1ccccc1 (stereo not given)
Class label: N
//
Molecule: CCOC(=O)NC1CC2CCC1(OC)C=C2C (stereo not given)
Class label: Y
//
Molecule: c1cc(NC2=NCCO2)c2c(c1)OCO2
Class label: Y
//
Molecule: C=CCC1C(=O)Nc2cccc3ncn(c23)C1=O (stereo not given)
Class label: Y
//
Molecule: Cc1cc(O)c2c(c1)CC(O)C1=C2C(=O)c2c(O)ccc(OC3CC(O)C(OC4CC(OC5CCC(O)C(C)O5)C(O)C(C)O4)C(C)O3)c2C1=O (stereo not given)
Class label: N
//
Molecule: COC(=O)[C@@]12C=CC(=O)[C@H]3C[C@@H](C(C(C)C)C1)[C@]32OC (stereo not given in full)
Class label: Y
//
Molecule: Cc1ccc(C2=NN(c3ccc(S(N)(=O)=O)cc3)C(c3cn(-c4ccccc4)nc3-c3ccccc3)C2)cc1 (stereo not given)
Class label: N
//
Molecule: Cc1c(CC/C(=N\Nc2ccc([N+](=O)[O-])cc2[N+](=O)[O-])c2ccccc2)c2ccccc2n1C
Class label: Y
//
Molecule: Fc1cccc(-c2[nH]nc3nc(Nc4cccnc4)sc23)c1
Class label: Y
//
Molecule: Fc1c(F)c(C(F)(F)F)c(F)c(F)c1N/N=C/c1cn(Cc2ccccc2)c2ccccc12
Class label: Y
//
Molecule: CCOC(=O)c1cc2cc(C)cc(C(=O)c3ccc([N+](=O)[O-])cc3)c2[nH]1
Class label: Y
//
Molecule: CC/C(SC)=[N+](\C)[O-]
Class label: Y
//
Molecule: Cc1nn(C)c2cc(N(C)c3ccnc(Nc4cccc(S(N)(=O)=O)c4)n3)ccc12
Class label: Y
//
Molecule: CC#CC(=O)N1CC[C@@H](n2c(=O)n(-c3ccc(Oc4ccccc4)cc3)c3c(N)ncnc32)C1
Class label: Y

Cited source: PubChem BioAssay (NCI)
